experimental_system: HIV-1 MGRM-C-026 envelope glycoprotein (Env) (HIV-1)
measurement_notes: cell-based or functional assay
attribute_measured: IC50 neutralization (µg/mL)
Quick note: give the figure in µg/mL, leave out the unit.

Lookup: Name the recorded IC50 neutralization for PGT-130 (antibody, V domains shown) VH: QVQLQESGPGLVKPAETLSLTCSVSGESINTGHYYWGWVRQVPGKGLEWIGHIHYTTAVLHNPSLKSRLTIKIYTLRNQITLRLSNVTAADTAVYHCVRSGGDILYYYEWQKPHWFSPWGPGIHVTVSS VL: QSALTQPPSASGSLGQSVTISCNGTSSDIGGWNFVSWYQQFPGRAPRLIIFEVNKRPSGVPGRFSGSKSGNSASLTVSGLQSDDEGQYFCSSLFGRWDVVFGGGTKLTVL .
Found: 0.0173
